Entry source: BindingDB's records for doi:10.1021/acs.jmedchem.8b01300

experiment: Inhibition of NS5B polymerase in wild type HCV genotype 1b infected in human Huh7 replicon cells after 5 days by RT-PCR assay

| Structure As Smiles | EC50 |
| --- | --- |
| Nc1nc2c(ncn2[C@@H]2O[C@H](CO)[C@@H](O)[C@]2(F)Br)c(=O)[nH]1 | > 10 µM |

###

Reported pEC50 values for the following compounds.
target: RNA-directed RNA polymerase (Hepacivirus hominis, UniProt Q8JXU8); assay: Inhibition of NS5B polymerase in wild type HCV genotype 1b infected in human Huh7 replicon cells after 5 days by RT-PCR assay
Sequence (Q8JXU8 whole entry): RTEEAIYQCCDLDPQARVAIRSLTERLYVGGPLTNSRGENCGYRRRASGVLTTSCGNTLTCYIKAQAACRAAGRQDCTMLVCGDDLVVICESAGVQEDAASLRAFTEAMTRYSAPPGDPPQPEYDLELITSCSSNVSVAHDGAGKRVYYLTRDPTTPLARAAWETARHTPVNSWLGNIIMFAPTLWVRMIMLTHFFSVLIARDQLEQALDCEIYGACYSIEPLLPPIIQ
pEC50: −log10 of the molar value.

| Compound | Value Operator | pEC50 |
| --- | --- | --- |
| Nc1ncnc2c1ncn2[C@@H]1O[C@H](CO)[C@H](O)[C@@]1(F)Br | < | 5.00 |
| CC(C)OC(=O)[C@H](C)NP(=O)(OC[C@H]1O[C@@H](n2ccc(N)nc2=O)[C@](F)(Br)[C@H]1O)Oc1ccccc1 (some centres undefined) | = | 6.22 |
| Nc1ccn([C@@H]2O[C@H](CO)[C@@H](O)[C@]2(F)Br)c(=O)n1 | = | 5.40 |
| C[C@@]1(O)[C@H](O)[C@@H](CO)O[C@H]1n1ccc(N)nc1=O | = | 5.55 |
